# Assay Summary: yeast display, Sf9 membrane polyspecificity reagent, FACS + sequencing; frameworks hold sequencing errors
Value Kind: polyreactivity (PSR sort gate)

sequence_entry=QVHLVESGGGLVQAGGSLRLSCAASGFIFYYYTMGWYRQAPGKEREFVAAITYSGGRTYYADSVKGRFTISRDNAKNSVYLQMNSLKPEDTSVYYCAAVPRYGPSYRMDYWGQGTQVTVSS result="high polyreactivity"
sequence_entry=QVQLVESGGGLVQAGGSLRLSCAASGFIFPYFAMGWYRQAPGKERELVAAISGSGGSTYYADSVKGRFTISRDNAKNTVYLQMNSLKPEDTAVYYCAASARRLNMGYWGQGTQVTVSS result="high polyreactivity"
sequence_entry=QVQLVESGGGLVQAGGSLRLSCAASGNTLSYYTMGWYRQAPGKERELVAAISRGGGSTYYADSVKGRFTISRDNSMNTVYLHMNSLKPEDTAVYYCAAEAYRYAWYDYWGQGTQVTVSS result="high polyreactivity"

====

# Assay Summary: yeast display, Sf9 membrane polyspecificity reagent, FACS + sequencing; frameworks hold sequencing errors
Value Kind: polyreactivity (PSR sort gate)

Here are 5 sequences together with their reported answers.
sequence_entry=QVQLVESGGGLVQAGGSLRLSCAASGSTFAKNAMGWYRQAPGKERELVAAISRGGNTYYADSVKGRFTISRDNAKNTVYLHMNSLKPEDTAVYYCAKLPYTRTYLGSLYDYWGQGTQVTVSS result="high polyreactivity"
sequence_entry=QVQLVESGGGLVQAGGSLRLSCAASGSIFFEYAMGWYRQAPGKERALVASINRGGGSTYYADSVKGRFTISRDYAKNTVYLQMNILIPEDTAVYYCAAQWKYRQYYLDYYWGQGTQVTVSS result="low polyreactivity"
sequence_entry=QVQLVESGGGLVQAGGSLRLSCAASGSTLRWNAMGWYRQAPGKERELVAAITYSGGSTYYADSVKGRFTISRDNAKNTVYLQMNSLKPEDTAVYYCAADSYRYRPGYGPVLYDYWGQGTQVTVSS result="high polyreactivity"
sequence_entry=QVQLVESGGGLVQAGGSLRLSCAASGSTFYANAMGWYRQAPGKERELVAAITSGGSTNYADSVKGRFTISRDNAKNTVYLQMNSLKPEDTAVYYCATPVNRERHAEDYWGQGTQVTVSS result="low polyreactivity"
sequence_entry=QVQLVESGGGLVQAGGSLRLSCAASGGIFSAYDMGWYRQAPGTERELVAAINSGGSTNYADSVKGRFTISRDNAKNTVYLQMNSLKPEDTAVYYCAAAKVSWFGLKYYYWGQGTQVTVSS result="high polyreactivity"

Give me polyreactivity (PSR sort gate) for each of these sequences, listed below.
1. QVQLVESGGGLVQAGGSLRLSCAASGSTFPRYAMGWYRQAPGKERELVAAISRSGTSTYYADSVKGRFTISRDNAKNTVYLQMNSLKPEDTAVYYCAAEYHPRVLYPNWYDYWGQGTQVTVSS
2. QVQLVESGGGLVQAGGSLRLSCAASGYIFRYYAMGWYRQAPGKERELVAAISRSGGNTYYADSVKGRFTISRDNAMITVYLQMNSLKPEDTAVYYCAVVLSTYSYADYDYWGQGTQVTVSS
3. QVQLVESGGGLVQAGGSLRLSCAASGITFRTNAMGWYRQAPGKERELVAVISSTGGRTYYADSVKGRFTISRDNAKNTVYLQMNSLNPEDTAVYYCAARAKYRFGYDYWGQGTQVTVSS

a:
1. low polyreactivity
2. high polyreactivity
3. high polyreactivity

====

# Assay Summary: yeast display, Sf9 membrane polyspecificity reagent, FACS + sequencing; frameworks hold sequencing errors
Value Kind: polyreactivity (PSR sort gate)

sequence_entry=PVQLVVSGGGLVQAGGSLRLRGAASGSSFSQNAMGWSRPAPGKDRELVAAITSGGITYYADSVKGRFTISRDNAKNTVYLQMNSLKPEDTAVYDCAADYWPSGRGVAFDYWGQGTQVTVSS value_kind="polyreactivity (PSR sort gate)" result="low polyreactivity"
sequence_entry=QVQLVESGGGLVQAGGSLRLSCAASGRTFTGNVMGWYIKAPGKERELVAAISRSGTSTYYADSVKGRFTISRDNAKNTVYLQMNSRKPEDTAVYYCAARRTAGYRSAEYDYWGQGTQVTVSS value_kind="polyreactivity (PSR sort gate)" result="high polyreactivity"
sequence_entry=QVQLVESGGGLVQAGGSLRLSCAASGSTFLVNAMGWYRQAPGKERELVAAISRSTGSTYYADSVKGRFTISRDNAKNTVYLQMNSLKPEDTAVYYCAVYRHGYGYNYWGQGSQVTVSS value_kind="polyreactivity (PSR sort gate)" result="high polyreactivity"
sequence_entry=QVQLVESGGGLDQAGGSLRLSCAASGSIFDYYAMGWYRQAPGKERELVARISYSGGTTYYADSVKGRFTISRDNAKNTVYLQMNSLKPEDTAVYYCNARIPYSWRYGYWGQGTQVTVSS value_kind="polyreactivity (PSR sort gate)" result="high polyreactivity"
sequence_entry=QVQLVESGGGLVQARGSLRVSCAASGSTFGRYAMGWYRQAPGKDRELVAAITGSGGSTYYADSVKGRFTISRDNAKNTVYLHMNSLKPEDTAVYYCAAPVDYRRYEYEYWGQGTQVTVSS value_kind="polyreactivity (PSR sort gate)" result="low polyreactivity"

Now let's try a different one.
Entry under test: QVQLVESGGGLVQAGGSLRLSCAASGFTFGSNAMGWYRQAPGKERELVAAISWSGGRTYYADSVKGRFTISRDNAKNTVYLQMNSLKPEDTAVYYCNKQYVKPWYRGYYYWGQGTQVNVSS . Its polyreactivity (PSR sort gate) was high polyreactivity

====

# Assay Summary: yeast display, Sf9 membrane polyspecificity reagent, FACS + sequencing; frameworks hold sequencing errors
Value Kind: polyreactivity (PSR sort gate)

sequence_entry=QVQLVESGGGLVQAGGSLRLSCAASGYIFVYNAMGWYRQAPGKERELVAAISTTGGRTYYADSVKGRFTISRDNAKNTVYLLMNSLKPEDTAVYYCAARAYYAWTLFGYWGQGTQVTVSS value_kind="polyreactivity (PSR sort gate)" result="high polyreactivity"
sequence_entry=QVQLVESGGGLVQAGGSLRLSCAASGRTFAYYAMGWYRQAPGKERELVAAITQSGGRTYYADSVKGRFTISRDNAKNTVYLQMNSLKPEDTAVDYCAARRISGKWEYDYWGQGTQVTVSS value_kind="polyreactivity (PSR sort gate)" result="high polyreactivity"
sequence_entry=QVQLVESGGGLVQAGGSLRLSCAASGTFERKVMGWYRPAPGKERELVAAISRSGSSTYYADSVKGRFTISRDNAKNTVYLQMNSLKPEDTAVYYCAARGTKQHFNYWGQGTQVTVSS value_kind="polyreactivity (PSR sort gate)" result="high polyreactivity"
sequence_entry=QVQLVESGGGLVQAGGSLRLSCAASGSTFYVYAMGWYRQAPGKERELVAAIDGSTGSTYYADSVKGRFTISRDNAKNTVYLQMNSLKPEDTAVYYCNAESIPPYSITKFDYWGQGTQGTVSS value_kind="polyreactivity (PSR sort gate)" result="low polyreactivity"
sequence_entry=QVQLVESGGGLVQAGGSLRLTCAASGFIFPWNAMAWFRQAPRKERELVAAISFSGGSTYYADSVKGRFTISRDNAKNTVYLQMNSLKPEDTAVYYCAKRTWDLRRTRHYYWGQGTQVTVSS value_kind="polyreactivity (PSR sort gate)" result="low polyreactivity"
sequence_entry=QLQQHESGGGLVQAGDSPRLSCAESDNIFPDSVMCWYLQAPGKERELVATIGFGATTNYADSVKGRFTISRDNAKNTVYLQMNCLKPEDTAVYYSAADPLNYEYFCYWGQGTQVTVSS value_kind="polyreactivity (PSR sort gate)" result="low polyreactivity"
sequence_entry=QVQLVESGRGLVQAGGSLRLSCAASGFTIDYYAIAWYRQAPGKERELVADISSDGSTYADSVKGRFTISRDNAKNTVYLQMNSLKPEDTAVYYCNAYLSKYFRYDYWGQGTQVTVSS value_kind="polyreactivity (PSR sort gate)" result="high polyreactivity"
sequence_entry=QVQLVESGGGLVQAGGSLRLSCAASGRIFFDYAMGWYRQAPGKERELGADISYNGGSTNYADSVKGRFTISRDNAKNTVYLQMISLKPEDTAVYYCNRALVPVYDLDYYWGQGTQVTVSS value_kind="polyreactivity (PSR sort gate)" result="low polyreactivity"

Give me polyreactivity (PSR sort gate) for each of these sequences, listed below.
1. QVQLVESGGALVQAGGSLRLSCAASGSIIVYNDMRSSRQAPGKQRELVAAITSSGGSTYYADSVKGRFTISRDNAKNTVYLQMNSLKPEDTAVYYCNVWDRPLTGYDYRGQGTQVTVSS
2. QVQLVESGGGLVQAGGSLRLSCAASGFTLEDYTMGWYRQAPGKERELVARITSGGSTNYADSVKGRFTISRDNAKNTVYLQMNSLKPEDTAVYYCNARYAWINMDYWGQGTQVTVSS
3. QVQLVESGGGLVQAGGSLRLSCAASGFTFYSYAMGWYRQAPGKERELVAGISRSGGSTYYADSVKGRFTISRDNAKNTVYLQMNSLKPEDTAVYYCNVRLRKKIQNSKYDYWGQGTQVTVSS
4. QVQLEESVGGLVQAGGSLRLSCAASGRIFTPYAMGWYRQAPGKERELVATISRGTSTSYADSVKGRFTISRDNAKNTVYLQMNSLKPEDTAVYYCAALGPRTTFRYTSYYYWGQGTQVTVSS
5. QVQLVESGGGLVQAGGSLRLSCAASGSIFIFNAMGWYRQAPGKEREFVARIRRDSSTNYADSVKGRFTISRDNAKNTVYLQMNSLKPEDTAVYYCAAKRFYRRVELNSWGQGTQVTVSS
6. QVQLVESGGGLVQAGGSLRLSCAASGRTSVLYAMGWYRQAPGKEREFVAAITWNSGSTYYADSVKGRFTISRDNAKNTVYLQMNSLKPEDTAVYYCNADYYFSSYRSTYDYWGQGTQVTVSS

a:
["low polyreactivity", "low polyreactivity", "high polyreactivity", "high polyreactivity", "low polyreactivity", "low polyreactivity"]
